- tested.system: Signal transducer and activator of transcription 3 (Homo sapiens)
- Sequence (P40763 whole entry): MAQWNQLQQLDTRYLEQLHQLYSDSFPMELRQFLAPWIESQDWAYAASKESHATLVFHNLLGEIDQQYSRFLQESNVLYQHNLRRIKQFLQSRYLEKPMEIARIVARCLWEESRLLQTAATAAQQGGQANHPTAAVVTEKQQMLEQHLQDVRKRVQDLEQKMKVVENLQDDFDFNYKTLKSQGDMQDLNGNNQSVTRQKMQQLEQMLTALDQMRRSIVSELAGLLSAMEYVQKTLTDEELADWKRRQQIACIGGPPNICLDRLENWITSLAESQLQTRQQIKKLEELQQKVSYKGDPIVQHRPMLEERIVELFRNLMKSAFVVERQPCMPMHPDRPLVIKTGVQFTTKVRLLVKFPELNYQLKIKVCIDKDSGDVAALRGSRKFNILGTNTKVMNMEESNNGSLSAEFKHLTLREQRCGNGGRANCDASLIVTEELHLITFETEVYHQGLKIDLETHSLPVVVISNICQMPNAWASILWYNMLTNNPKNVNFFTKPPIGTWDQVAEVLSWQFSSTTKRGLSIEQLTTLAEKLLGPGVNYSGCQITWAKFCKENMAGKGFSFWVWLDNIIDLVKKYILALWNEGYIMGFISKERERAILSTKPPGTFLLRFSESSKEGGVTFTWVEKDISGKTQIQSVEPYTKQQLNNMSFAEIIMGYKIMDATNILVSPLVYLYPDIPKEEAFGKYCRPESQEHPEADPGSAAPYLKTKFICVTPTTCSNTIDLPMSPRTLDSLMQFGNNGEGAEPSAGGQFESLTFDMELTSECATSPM
- test.protocol: Inhibition of STAT3 dimer DNA binding activity after 30 mins
# strict inequality: IC50 < 100 µM yields true (1), everything else yields false (0)

> print(dat)
                                   molecule   category
1  CC(C)CNC(=O)[C@H](CC(C)C)NC(=O)[C@H](Cc1ccc(OP(=O)(O)O)cc1)NC(=O)c1ccc(C#N)cc1 (stereo in doubt; form 1)   true (1)
2  CC(C)C[C@H](NC(=O)[C@H](Cc1ccc(OP(=O)(O)O)cc1)NC(=O)c1ccc(C#N)cc1)C(=O)NC1CCCCC1   true (1)
3  COc1cccc(NC(=O)[C@H](CC(C)C)NC(=O)[C@H](Cc2ccc(OP(=O)(O)O)cc2)NC(=O)c2ccc(C#N)cc2)c1   true (1)
4  CC(C)C[C@H](NC(=O)[C@H](Cc1ccc(OP(=O)(O)O)cc1)NC(=O)c1ccc(C#N)cc1)C(=O)Nc1ccccc1  false (0)
5  CC(C)C[C@H](NC(=O)[C@H](Cc1ccc(OP(=O)(O)O)cc1)NC(=O)c1ccc(C#N)cc1)C(=O)NCCCO  false (0)
6  CC(C)CNC(=O)[C@H](CC(C)C)NC(=O)[C@H](Cc1ccc(OP(=O)(O)O)cc1)NC(=O)c1ccc(C#N)cc1 (stereo in doubt; form 2)   true (1)
7  CC(C)C[C@H](NC(=O)[C@H](Cc1ccc(OP(=O)(O)O)cc1)NC(=O)c1ccc(C#N)cc1)C(=O)NCc1ccncc1  false (0)
8  CC(C)C[C@H](NC(=O)[C@H](Cc1ccc(OP(=O)(O)O)cc1)NC(=O)c1ccc(C#N)cc1)C(=O)NCc1ccccc1  false (0)
